FYI, the data here is from ChEMBL document CHEMBL3046406.

System: Chenopodium album
assay-info: Herbicidal activity against Chenopodium album assessed as diameter of leaf necrosis at 250 ug/ml measured after 2 days post compound treatment by leaf puncture assay
Assay type: functional
Please provide measured Activity for the entries that follow.

input: Look up Activity for this molecule: CC(C)=C[C@H]1C[C@H](C)[C@]2(CC[C@]3(C)C[C@H]4[C@H](C(=O)C[C@@]4(C)O)/C(C=O)=C\C[C@H]32)O1 [OPHIOBOLIN A]
output: >3 mm

input: State the recorded Activity for this entry: CC(C)=C[C@H]1C[C@H](C)[C@]2(CC[C@]3(C)C[C@H]4[C@@H](C(=O)C[C@@]4(C)O)/C(C=O)=C\C[C@H]32)O1 [6-EPI-OHPIOBOLIN A]
output: >3 mm

input: # query: Activity of entry CC(C)=C[C@H]1C[C@H](C)[C@]2(CC[C@]3(C)C[C@@H]4C(C)=CC(=O)[C@H]4/C(C=O)=C\C[C@H]32)O1 [3-ANHYDRO-6-EPI-OPHIOBOLIN A]
output: 1 mm

* * *

Tested on: Convolvulus arvensis
assay-info: Herbicidal activity against Convolvulus arvensis assessed as diameter of leaf necrosis at 100 ug/ml measured after 2 days post compound treatment by leaf puncture assay
Format: functional
Activity calls are given as the source filed them. The rule behind the calls is not given here.
measurement-type: Activity

CC(C)=C[C@H]1C[C@H](C)[C@]2(CC[C@]3(C)C[C@H]4[C@@H](C(=O)C[C@@]4(C)O)/C(C=O)=C\C[C@H]32)O1 [6-EPI-OHPIOBOLIN A] : 2 mm
CC(C)=C[C@H]1C[C@H](C)[C@]2(CC[C@]3(C)C[C@@H]4C(C)=CC(=O)[C@H]4/C(C=O)=C\C[C@H]32)O1 [3-ANHYDRO-6-EPI-OPHIOBOLIN A] : inactive
CC(C)=C[C@H]1C[C@H](C)[C@]2(CC[C@]3(C)C[C@H]4[C@H](C(=O)C[C@@]4(C)O)/C(C=O)=C\C[C@H]32)O1 [OPHIOBOLIN A] : 2 mm
CC(C)=C[C@H]1C[C@H](C)[C@]2(CC[C@]3(C)C[C@@H]4C(C)=CC(=O)[C@H]4/C(CO)=C\C[C@H]32)O1 : inactive

* * *

Tested on: Convolvulus arvensis
assay-info: Herbicidal activity against Convolvulus arvensis assessed as diameter of leaf necrosis at 250 ug/ml measured after 2 days post compound treatment by leaf puncture assay
Type: functional
Calls of active or inactive are those of the source. No cut-off for these calls is given here.
measurement-type: Activity

CC(C)=C[C@H]1C[C@H](C)[C@]2(CC[C@]3(C)C[C@@H]4C(C)=CC(=O)[C@H]4/C(CO)=C\C[C@H]32)O1 : inactive
CC(C)=C[C@H]1C[C@H](C)[C@]2(CC[C@]3(C)C[C@H]4[C@H](C(=O)C[C@@]4(C)O)/C(C=O)=C\C[C@H]32)O1 [OPHIOBOLIN A] : 2 mm
CC(C)=C[C@H]1C[C@H](C)[C@]2(CC[C@]3(C)C[C@H]4[C@@H](C(=O)C[C@@]4(C)O)/C(C=O)=C\C[C@H]32)O1 [6-EPI-OHPIOBOLIN A] : 2 mm
CC(C)=C[C@H]1C[C@H](C)[C@]2(CC[C@]3(C)C[C@@H]4C(C)=CC(=O)[C@H]4/C(C=O)=C\C[C@H]32)O1 [3-ANHYDRO-6-EPI-OPHIOBOLIN A] : inactive
